B1: EHEE_rd4_0726 (parent)
chain: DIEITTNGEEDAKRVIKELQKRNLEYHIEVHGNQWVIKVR

Variants of: B1
TEST_DETAILS: folding stability dG (cDNA display proteolysis); higher = more stable
CONDITION_SET: PBS, room temperature
# folding stability dG per record follows
Give the value, in units of kcal/mol, as a plain number.

Some variants with known folding stability dG results, for comparison:
- VARIANT_NOTATION: "R22A"
  folding stability dG / kcal/mol: 2.25
- VARIANT_NOTATION: "R40S"
  folding stability dG / kcal/mol: 2.18
- VARIANT_NOTATION: "D1F"
  folding stability dG / kcal/mol: 3.31
- VARIANT_NOTATION: "E3A"
  folding stability dG / kcal/mol: 2.16
- VARIANT_NOTATION: "R22P"
  folding stability dG / kcal/mol: 0.049

Entry under test: E10N . Its folding stability dG was 1.93

Reported folding stability dG ( I2H ) = 2.06

Reported folding stability dG ( T5L ) = 2.49

Record V36S . Reported folding stability dG: 0.912
